test system: Plasmodium berghei; test: Luciferase/luciferin-expressing antifolate-resistant parasites were used to infect a culture of HepG2 cells that were pre-incubated with compounds. Infected hepatocytes emit light due to the luciferase reaction. Assay results are presented as the percent inhibition of light emission compared to control. […]; assay type: functional; conditions: sporozoite, PBLUC_HILL_SLOPE 13.8, PBLUC_R_SQUARED 0.558, read-out: LUCIFERASE INFECTION ASSAY - IC50
endpoint: pIC50
Expect pIC50 as a plain number equal to -log10 of the molar concentration.

input: Identify pIC50 associated with the molecule COc1cc(-c2cc(-c3ccccc3)cnc2N)ccc1O
output: 5.42

* * *

tested on: Plasmodium berghei; assay: Luciferase/luciferin-expressing antifolate-resistant parasites were used to infect a culture of HepG2 cells that were pre-incubated with compounds. Infected hepatocytes emit light due to the luciferase reaction. Assay results are presented as the percent inhibition of light emission compared to control. […]; format: functional; details: sporozoite, HEPG2TOX_HILL_SLOPE 5.8, HEPG2TOX_R_SQUARED 0.44, PBLUC_HILL_SLOPE 7.31, PBLUC_R_SQUARED 0.6, read-out: LUCIFERASE INFECTION ASSAY - IC50
endpoint: IC50 (µM)
Write the value in µM as a bare number.

input: Identify IC50 associated with the compound O=C1C=C(c2ccccc2)C(=O)N1Nc1ccc(Cl)cc1Cl
output: 9.05

* * *

tested on: Plasmodium berghei; assay: Luciferase/luciferin-expressing antifolate-resistant parasites were used to infect a culture of HepG2 cells that were pre-incubated with compounds. Infected hepatocytes emit light due to the luciferase reaction. Assay results are presented as the percent inhibition of light emission compared to control. […]; assay type: functional; details: sporozoite, HEPG2TOX_HILL_SLOPE 8.99, HEPG2TOX_R_SQUARED 0.725, PBLUC_HILL_SLOPE 4.78, PBLUC_R_SQUARED 0.254, read-out: LUCIFERASE INFECTION ASSAY - IC50
endpoint: IC50

input: Identify IC50 associated with the compound Clc1ccc(CN2CCN(c3ncnc4sccc34)CC2)s1
output: 8.3 µM

* * *

system: Plasmodium berghei; experiment: Luciferase/luciferin-expressing antifolate-resistant parasites were used to infect a culture of HepG2 cells that were pre-incubated with compounds. Infected hepatocytes emit light due to the luciferase reaction. Assay results are presented as the percent inhibition of light emission compared to control. […]; format: functional; settings: sporozoite, FFLUC_HILL_SLOPE 1.19, FFLUC_R_SQUARED 0.95, read-out: LUCIFERASE INFECTION ASSAY - IC50
pIC50: −log10 of the molar value.
endpoint: pIC50

input: Identify pIC50 associated with the molecule C/N=c1\scc(-c2ccc(C)c(C)c2)n1/N=C/c1ccc[nH]1
output: < 5.00

* * *

test system: Plasmodium berghei; test: Luciferase/luciferin-expressing antifolate-resistant parasites were used to infect a culture of HepG2 cells that were pre-incubated with compounds. Infected hepatocytes emit light due to the luciferase reaction. Assay results are presented as the percent inhibition of light emission compared to control. […]; type: functional; settings: sporozoite, HEPG2TOX_HILL_SLOPE 11.1, HEPG2TOX_R_SQUARED 0.957, PBLUC_HILL_SLOPE 12.9, PBLUC_R_SQUARED 0.465, read-out: LUCIFERASE INFECTION ASSAY - IC50
endpoint: IC50 (µM)
Write the value in µM as a bare number.

input: Identify IC50 associated with the compound COc1ccccc1CN1C(=O)C=CC1=O
output: 13.8
